# subject of test: T1, recombinant human CD3 epsilon/delta heterodimer (human, UniProt P07766 23-126; P04234 22-105)
# T1 construct: Recombinant heterodimer used as analyte in Octet; also called hCD3 E/D; human CD3E/D
# assay: BLI (Octet), mAb 5 ug/mL on FAB2G sensor, hCD3 E/D 200-50 nM
Mark Condition not met for Response values under 0.6, and Condition met for everything at or above.

Worked set:
{"binder": "ABL-CD3-82 (antibody, V domains shown, mAb purified from hybridoma; chimeric AlivaMab IgG (human VH, CH1 and upper hinge; mouse middle hinge, CH2, CH3; human light chain)) VH: EVQLVESGGGLVKPGGSLRLSCAASGFTFSSYSMNWVRQAPGKGLEWVSSISSSSSYIYYADSVKGRFTISRDNAKNSLYLQMNSLRAEDTAVYYCARDRRELLLDYWGQGTLVTVSS VL: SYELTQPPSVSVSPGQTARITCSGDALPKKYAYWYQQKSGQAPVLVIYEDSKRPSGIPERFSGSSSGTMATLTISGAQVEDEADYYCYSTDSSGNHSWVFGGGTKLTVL", "assigned label": "Condition not met"}
{"binder": "ABL-CD3-73 (antibody, V domains shown, mAb purified from hybridoma; chimeric AlivaMab IgG (human VH, CH1 and upper hinge; mouse middle hinge, CH2, CH3; human light chain)) VH: EVQLVESGGGLVKPGGSLRLSCAASGFTITSYSMNWVRQAPGKGLEWVSTFSRSSTYIYYADSVKGRFTISRDNAKNSLYLQMNSLRAEDTAVYYCAREKWDLLYFDYWGQGTLVTVSS VL: NFMLTQPHSVSESPGKTVTISCTRSSGSIASNYVQWYQQRPGSSPTTVIYEDNRRPSGVPDRFSGSIDSSSNSASLTISGLKTEDEADYYCQSYDNSNRVFGGGTTLTVL", "assigned label": "Condition met"}
{"binder": "ABL-CD3-69 (antibody, V domains shown, mAb purified from hybridoma; chimeric AlivaMab IgG (human VH, CH1 and upper hinge; mouse middle hinge, CH2, CH3; human light chain)) VH: EVQLVESGGGLVKPGGSLRLSCAASGFTFSTYTMNWVRQAPGKGLEWVSTITSSSRYIYYADSVKGRFTISRDNAKNSLYLQMNSLRAEDTAVYYCARVTFDAFDIWGQGTMVTVSS VL: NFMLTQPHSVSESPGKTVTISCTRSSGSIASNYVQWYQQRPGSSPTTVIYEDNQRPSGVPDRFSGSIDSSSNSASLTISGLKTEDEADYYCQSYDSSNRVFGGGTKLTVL", "assigned label": "Condition met"}
{"binder": "ABL-CD3-78 (antibody, V domains shown, mAb purified from hybridoma; chimeric AlivaMab IgG (human VH, CH1 and upper hinge; mouse middle hinge, CH2, CH3; human light chain)) VH: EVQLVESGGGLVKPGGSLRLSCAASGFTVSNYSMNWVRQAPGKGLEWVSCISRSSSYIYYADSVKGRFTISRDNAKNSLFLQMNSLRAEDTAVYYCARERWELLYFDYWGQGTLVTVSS VL: NFMLTQPHSVSESPGKTVTISCTRSSGSIASNYVQWYQQRPGSSPTTVIYEDNQRPSGVPDRFSGSIDSSSNSASLTISGLKTEDEADYYCQSFDGSNRVFGGGTKLTVL", "assigned label": "Condition not met"}

(Q) hey, is Response for this one >= 0.6? ABL-CD3-84 (antibody, V domains shown, mAb purified from hybridoma; chimeric AlivaMab IgG (human VH, CH1 and upper hinge; mouse middle hinge, CH2, CH3; human light chain)) VH: EVQLVESGGGLVKPGGSLRLSCAASGFTFSNFIMNWVRQAPGKGLEWVSSISGSSNYIYYADSVKGRFTISGDNAKNSLYLQMNSLRAEDTAVYYCAREKWVLLFFDYWGQGTLVTVSS VL: NFMLTQPHSVSESPGKTVTISCTRSSGSIASNYVQWYQQRPGSSPTTMIYEDTQRPSGVPDRFSGSIDSSSNSASLTISGLKTEDEADYYCQSYDSSNRVFGGGTKLTVL
(A) Condition not met

(Q) hey, is Response for this one >= 0.6? ABL-CD3-83 (antibody, V domains shown, mAb purified from hybridoma; chimeric AlivaMab IgG (human VH, CH1 and upper hinge; mouse middle hinge, CH2, CH3; human light chain)) VH: EVQLVESGGGLVKPGGSLRLSCAASGFTFSSYSMNWVRQAPGKGLEWVSTISRSGGYIYDADSVKGRFTISRDNAKNSLYLQMNSLRAEDTAVYYCARDFNWTFDNWGQGTLVTVSS VL: NFMLTQPHSVSESPGKTVTISCTRSSGSIASNYVQWYQQRPGSSPTTVIYEDNQRPSGVPDRFSGSIDSSSNSASLTISGLKTEDEADYYCQSSDRSNVVFGGGTKLTVL
(A) Condition not met

(Q) hey, is Response for this one >= 0.6? ABL-CD3-67 (antibody, V domains shown, mAb purified from hybridoma; chimeric AlivaMab IgG (human VH, CH1 and upper hinge; mouse middle hinge, CH2, CH3; human light chain)) VH: EVQLVESGGGLVKPGGSLRLSCAASGFTVSSYSMNWVRQAPGKGLEWVSSISRSSSYIYYADSVKGRFTISRDNAKNSLFLQMNSLRAEDTAVYYCARERWELLYFDYWGQGTLVTVSS VL: NFMLTQPHSVSESPGKTVTISCTRSSGSIASNYVQWYRQRPGSSPTTVIYEDNQRPSGVPDRFSGAIDSSSTSASLTISGLKTEDEADYYCQSYDSSNRVFGGGTKLTVL
(A) Condition not met

(Q) hey, is Response for this one >= 0.6? ABL-CD3-75 (antibody, V domains shown, mAb purified from hybridoma; chimeric AlivaMab IgG (human VH, CH1 and upper hinge; mouse middle hinge, CH2, CH3; human light chain)) VH: EVQLVESGGGLVKPGGSLRLSCAASGFTFSTYSLNWVRQAPGKGLEWVSSISVSSRYIYFADSVKGRFTISRDNAKNSLYLQMNSLRAEDTAVYYCARDRRELLLDYWGQGTLVTVSS VL: SYELTQPPSVSVSPGQTARITCSGDALPKKYAYWYQQKSGQAPVLVIYEDSKRPSGIPERFSGSSSGTMATLTISGAQVEDEADYYCYSTDSSGNHNWVFGGGTKLTVL
(A) Condition not met
